Molecular target: T1, HLA-A*0201 on the CEM.T2 cell line (T2) (human)
T1 construct: whole, on cells
Experiment: T2 cell dissociation assay with Brefeldin A, flow cytometry
Exercise: for every item that follows, state its recorded CEM.T2 % Residual Binding.
# number only, unit % dropped from output

Data request: Consider the binder shown here: SASVVVVGV (Synthetic nonapeptide of human nectin4; the range counts on nectin4) [Nectin4 peptide 347 (SASVVVVGV)] What is its recorded CEM.T2 % Residual Binding?
Data returned: 0

Data request: Can you look up the measured CEM.T2 % Residual Binding of ALLFCLLVV (Synthetic nonapeptide of human nectin4; the range counts on nectin4) [Nectin4 peptide 358 (ALLFCLLVV)] for me?
Data returned: 26

Data request: Report CEM.T2 % Residual Binding for VLVPPLPSL (Synthetic nonapeptide of human nectin4; the range counts on nectin4) [antigen peptide N4-145 (VLVPPLPSL)] please.
Data returned: 54

Data request: What does the record list as CEM.T2 % Residual Binding for ILHVSFLAE (Synthetic nonapeptide of human nectin4; the range counts on nectin4) [Nectin4 peptide 239 (ILHVSFLAE)] ?
Data returned: 0

Data request: Fill blank: measured CEM.T2 % Residual Binding of the binder GVIAALLFC (Synthetic nonapeptide of human nectin4; the range counts on nectin4) [Nectin4 peptide 354 (GVIAALLFC)] is ____.
Data returned: 0

Data request: For the binder RSYSTLTTV (Synthetic nonapeptide of human nectin4; the range counts on nectin4) [Nectin4 peptide 443 (RSYSTLTTV)] , what CEM.T2 % Residual Binding is on record?
Data returned: 0

Data request: Entry SMNGQPLTC (Synthetic nonapeptide of human nectin4; the range counts on nectin4) [Nectin4 peptide 215 (SMNGQPLTC)] : reported CEM.T2 % Residual Binding = ?
Data returned: 0

Data request: Return reported CEM.T2 % Residual Binding; argument: DQNLWHIGR (Synthetic nonapeptide of human nectin4; the range counts on nectin4) [Nectin4 peptide 255 (DQNLWHIGR)]
Data returned: 0

The measurements presented in this section are drawn from patent US20140178394A1.
